# Test system: ZIKV mosquito strain MEX 2-81 (2016/Mexico)
# Test summary: Plaque reduction inhibition assay in Vero E6 cells, ZIKV MEX 2-81
# Type: cell-based, Zika virus (ZIKV)
# Experimental parameters: Zika virus, Vero C1008, read-out: ZIKV strains IC50, MEX 2-81
Quantity measured: IC50 (nM)
Answer in nM, number only, no unit symbol.

# input Hello, I am looking for reported IC50 with ZIKV mosquito strain MEX 2-81 (2016/Mexico) for Cc1cc2c(C(C)C)c(O)c(O)c(C=O)c2c(O)c1-c1c(C)cc2c(C(C)C)c(O)c(O)c(C=O)c2c1O . Could you help?
# output 2930

###

# Tgt: binding between ZIKV EDIII and EDIII-specific mAb SMZAb5 (Zika virus, UniProt Q32ZE1, D679E/I627V/V603I/V629A)
# Construct: human Fc (C)
# Sequence (Q32ZE1 584-695 V603I/I627V/V629A/D679E): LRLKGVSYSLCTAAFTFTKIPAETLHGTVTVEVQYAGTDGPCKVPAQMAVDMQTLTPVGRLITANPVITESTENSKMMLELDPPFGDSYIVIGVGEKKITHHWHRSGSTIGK
# Experimental parameters: ELISA; EDIII 1.5 μg/ml, mAb 0.5 μg/ml; read-out: IC50, blocking EDIII-mAb binding, SMZAb5
Quantity measured: pIC50
Please note pIC50 is a logarithmic value: minus log10 of concentration in mol/L. Answer with that number alone.

# input Need pIC50, item Cc1cc2c(C(C)C)c(O)c(O)c(/C=N/n3c(=O)[nH][nH]c3=O)c2c(O)c1-c1c(C)cc2c(C(C)C)c(O)c(O)c(/C=N/n3c(=O)[nH][nH]c3=O)c2c1O [ST087010]
# output 5.24

###

Measured pIC50 accompanies every entry in the list below.
# System: ZIKV human strain FLR (2015/Colombia)
# Test summary: Plaque reduction inhibition assay in Vero E6 cells, ZIKV FLR
# Assay type: cell-based, Zika virus (ZIKV)
# Experimental parameters: Zika virus, Vero C1008; Vero E6 cells; Table 1; read-out: IC50 against ZIKV strain FLR
The value called pIC50 is obtained by taking minus log10 of the concentration in mol/L.

Compound	pIC50
C[C@@H]1CC[C@@]2(OC1)O[C@H]1[C@@H](O)[C@H]3[C@@H]4CC[C@H]5C[C@@H](O[C@@H]6O[C@H](CO)[C@H](O[C@@H]7O[C@H](CO)[C@@H](O)[C@H](O[C@@H]8OC[C@@H](O)[C@H](O)[C@H]8O)[C@H]7O[C@@H]7O[C@H](CO)[C@H](O)[C@H](O[C@@H]8O[C@H](CO)[C@@H](O)[C@H](O)[C@H]8O)[C@H]7O)[C@H](O)[C@H]6O)[C@H](O)C[C@]5(C)[C@H]4CC[C@]3(C)[C@H]1[C@@H]2C [Digitonin, digitonin]	5.48

Now for a further compound.
# input // lookup pIC50 for Cc1cc2c(C(C)C)c(O)c(O)c(C=O)c2c(O)c1-c1c(C)cc2c(C(C)C)c(O)c(O)c(C=O)c2c1O [Gossypol, gossypol]
# output 6.68

###

# Tgt: ZIKV EDIII protein (Zika virus, UniProt Q32ZE1, D679E/I627V/V603I/V629A)
# Construct: human Fc (C)
# Sequence (Q32ZE1 584-695 V603I/I627V/V629A/D679E): as above
# Test summary: SPR binding to ZIKV EDIII protein
# Experimental parameters: 1:1 binding model, read-out: KD (binding affinity) to ZIKV EDIII protein
# Description: Briefly, ZIKV EDIII protein or NS2B-NS3 protein were immobilized on a sensor chip (CM5) using Amine Coupling Kit. Serially diluted ST087010 was added as analytes, and HBS-EP with 10% DMSO (10 mM HEPES, 150 mM NaCl, 3 mM EDTA, 0.05% Tween-20, 10% DMSO, pH 7.4) was used as running buffer. Biacore BK evaluation software (version 1.1) was applied to analyze the data, and the curve was fitted with a 1:1 binding model.
Quantity measured: pKd
Please keep in mind that pKd is minus log10 of the molar concentration; only the number is needed.

# input Find the recorded pKd belonging to Cc1cc2c(C(C)C)c(O)c(O)c(/C=N/n3c(=O)[nH][nH]c3=O)c2c(O)c1-c1c(C)cc2c(C(C)C)c(O)c(O)c(/C=N/n3c(=O)[nH][nH]c3=O)c2c1O and report it.
# output 5.31

The reported measurements were obtained from patent US20220313651A1.
